# System: SF-295 CNS
# assay.details: NCI-60 one-dose screen, 48 h
# reported.conditions: 10 µM unless noted
The panel holds about 83,000 compounds, 20% with a hit somewhere; the sample as a whole holds those more often. Active and inactive are the calls of the source. The calls were made as follows: active = growth percent below 10; inactive = the rest.
Reply using exactly one outcome from active, inactive

O=C(O)c1ccc2c(c1Sc1ccccc1)C(=O)c1ccccc1C2=O = inactive
CCOC(=O)/C=C/c1ccc(C(=O)OCC)[nH]1 = inactive
COc1cc(NCCCCCN=C(N)NC(N)=NC(C)C)c2ncccc2c1 = inactive
O=C1c2cccnc2C(=O)c2c1c(C(=O)OCCN1CCCCC1)c1ccccn21 = active

What classification did CCCN(CCC)CN(CCC)CCC end up with in this test?
inactive

Tell me the recorded outcome of this test for CCOC(=O)c1cnc2ccc(Br)cc2c1Nc1cccc(S(=O)(=O)NC)c1 .
inactive

Hi, sorry to bother you, what did the test record for Cc1nc2sc(C(=O)Nc3cccc4c3OCCO4)c(N)c2cc1C(C)O (centres undefined) ?
inactive

Name the outcome recorded for CCCCCCCCCCCCCC1=NCCN1CCO in the assay.
inactive

Fill in: this test's call for CCOC(=O)c1c2c(n3ccc(NC(=O)CCN4CCOCC4)cc13)C(=O)c1ncccc1C2=O is ___
inactive

----------
# System: A498 renal
# assay.details: NCI-60 one-dose screen, 48 h (100 = growth as untreated, 0 = no growth, -100 = all killed)
# reported.conditions: 10 µM unless noted
About 83,000 compounds went through this panel and 20% of them were active in at least one assay; those are over-represented in the sample as a whole.
quantity.name: growth (%)
Supply the numeric figure in %, leaving out any unit text.

For orientation, consider the following solved cases.
CCCCCCCCCc1cc(CN2CCCCC2)c(O)c(CN2CCCCC2)c1 = 75
O=C1/C(=C\c2cn(C(=O)c3ccc(Cl)cc3)c3ccccc23)c2ccccc2N1c1c(Cl)cccc1Cl = 103
CC(=O)C1=C(O)C=C2Oc3c(C(=O)/C=C/c4c(Cl)cccc4Cl)c(O)c(C)c(O)c3[C@]2(C)C1=O = -72.4
COc1ccc(C2c3ccc4ccccc4c3Oc3ncnc(N)c32)cc1 (stereo unspecified) = 75.2
C[C@@]1(N2C(=O)OC[C@@H]2c2ccccc2)C(=O)N([C@H](CC(=O)N2CCC(N3CCCCC3)CC2)C(=O)NCc2cccc(C(F)(F)F)c2)[C@@H]1/C=C/c1ccccc1 = 52.3
CN(C)c1ccc(/C=C\C2=[N+](C)c3ccccc3C2(C)C)cc1 = 48.2
CCN(CC)Cc1cc(Nc2c3ccccc3nc3cc(Cl)ccc23)ccc1O = -61.4
CC/C=C\C[C@H](O)C/C=C1/C(=O)C=C[C@@H]1C/C=C\CCCC(=O)NC(C)C = 98.5
Oc1ccccc1N=Cc1c(O)ccc2ccccc12 = 64.8
CCCCCCCCCCCCCC(=O)C(C)N (stereo unspecified) = 11.3

I would be grateful if you could share the reported growth for CCCC(=O)Oc1ccc(/C(=C(/CC)Cc2ccccc2)c2ccc(OCCN3CCCC3)cc2)cc1 .
71.9

Request the reported growth associated with COc1ccc(C(=O)c2sc3nc(-c4ccccc4OC)ccc3c2N)cc1OC
47.7

Tell me the measured growth of CCN(CC)CCC(=O)Nc1ccc(Cn2nnc3c2C(=O)c2nnn(Cc4ccc(NC(=O)CCN(CC)CC)cc4)c2C3=O)cc1 , please.
14.6

Please report the recorded growth for Oc1ccc2c(=S)cc(-c3ccc(Br)cc3)oc2c1O .
53.9

// growth lookup, key: CC(=O)Oc1cc2cnc3c4cc(OC(C)=O)c(OC(C)=O)cc4ccc3c2cc1OC(C)=O
-15.6

What does the data say about its growth? Entry: Oc1c(Cl)cc(Cl)cc1CNc1nccnn1
88.7

Form field: reported growth of O=C(CO[N+](=O)[O-])Nc1ccc(C(=O)/C=C/c2ccc(Cl)cc2)cc1
103

----------
# Tested on: MALME-3M melanoma
# assay.details: NCI-60 one-dose screen, 48 h
# reported.conditions: 10 µM unless noted
About 83,000 compounds went through this panel and 20% of them were active in at least one assay; those are over-represented in the sample as a whole. The source made the active and inactive calls. How the source made its calls: active means growth percent below 10; inactive means the rest.
Returns: one label drawn from True (active), False (inactive)

Use the examples below as a reference point.
CC/C(Cc1ccccc1)=C(/c1ccc(O)cc1)c1ccc(OCCN2CCCC2)cc1 = True
O=C1c2cc3c(cc2-c2c1c1cc(F)c(F)cc1c(=O)n2C[C@H](O)CO)OCO3 = True
CNc1cc2nc3cc(NC)c(C)cc3cc2cc1C = False
CC1(C)CC(C(=O)OCCCCCCCCCCC[P+](c2ccccc2)(c2ccccc2)c2ccccc2)C(C)(C)N1O (stereo not drawn) = True
CNC(=S)N/N=C/CSC/C=N/NC(=S)NC = False

Hi team, can someone confirm the assay call for COc1cccc(-n2cc(-c3nc(Nc4cc(C)[nH]n4)c4ccccc4n3)nn2)c1 ?
False

Write down the call the test reported for this compound. Item: N#CC1=C(N)Oc2c(ccc3ccccc23)C1c1cccs1 (stereo not drawn)
False

Each compound tested received a call. Report the one for C=C1CCC2C3(C)COC(C)(C)OC3CCC2(C)C1C/C=C1/C(=O)OCC1OC(C)=O (stereo not drawn) .
False

Record lookup: outcome of this test for CCCCCCCCCCCCN1CCCC(C)C1 (stereo not drawn) ?
False

Recorded test call requested for Cc1nn(-c2nc3ccccc3[nH]2)c2c1C(c1ccc3c(c1)OCO3)CC(=O)N2 (stereo not drawn)
False

Outcome logged for O=C(Cn1cc(CN2C(=O)c3ccccc3S2(=O)=O)nn1)Nc1ccc([N+](=O)[O-])cc1Cl in this assay:
False

Hi team, can someone confirm the assay call for O=C(NCc1cccc(C(F)(F)F)c1)[C@H](CCC(=O)N1CCN(C2CCCCC2)CC1)N1C(=O)[C@@H](N2C(=O)OC[C@@H]2c2ccccc2)[C@H]1/C(Cl)=C/c1ccccc1 ?
False

Record request — test call for COc1ccc(CCN2CC=Cn3c2nc2ccccc2c3=O)cc1
False

----------
// reported growth for each item listed
# System: MDA-MB-231 breast
# assay.details: NCI-60 one-dose screen, 48 h (100 = growth as untreated, 0 = no growth, -100 = all killed)
# reported.conditions: 10 µM unless noted
This is part of a sample that, as a whole, favours compounds with a hit. Of some 83,000 tested, about 20% had one in any assay.
Just the number in %, nothing appended.

Answered cases to consult:
CCOC(=O)c1cnc2cc(Cl)c(F)cc2c1Nc1cccc(NS(C)(=O)=O)c1 = 80.6
C=C(C[n+]1ccccc1)[C@@H]1CC[C@]2(C(=O)OC)CC[C@]3(C)[C@H](CC[C@@H]4[C@@]5(C)CC[C@H](O)C(C)(C)[C@@H]5CC[C@]43C)[C@@H]12 = 114
Cc1ccc2c(c1)n([O-])c1cc(Cl)ccc1[n+]2=O = 80.9
CCOC(=O)C(Cc1cc(I)c(O)c(I)c1)NC(=O)c1ccccc1 (stereo not drawn) = 102
CC1=CC(=O)CC(C)(C)[C@@]1(O)/C=C/[C@@H](C)O = 93.3
Cc1ccc2cnc(N)c(C#Cc3cncc(C(=O)Nc4ccc(CN5CCN(C)CC5)c(C(F)(F)F)c4)c3)c2c1 = -94.8
O=C1C2CC=CCC2C(=O)N1CNc1ccc(Cl)cc1 (stereo not drawn) = 92.8
COc1ccc(-c2cn3c(ccc4ccccc43)n2)cc1 = 83.3

Could you share what growth was measured for O=C1/C(=C\c2cn(C(=O)c3ccc(Cl)cc3)c3ccccc23)c2ccccc2N1c1c(Cl)cccc1Cl , tested on MDA-MB-231 breast?
103

----------
Catalogue of molecules with associated growth
# Tested on: DU-145 prostate
# assay.details: NCI-60 one-dose screen, 48 h (100 = growth as untreated, 0 = no growth, -100 = all killed)
# reported.conditions: 10 µM unless noted
Compounds without any hit were thinned out: in the full panel of roughly 83,000, 20% have a hit.
Kindly provide the numeric value in % only, without the unit symbol.

Worked examples, 10 molecules total:
CSc1nc(NCCCNc2ccnc3cc(Cl)ccc23)cc(-c2ccccc2)n1 = 81.3
COc1ccc(-c2nc(Nc3cc(C)[nH]n3)c3ccccc3n2)cc1 = 61
Cc1cc(Nc2nc(N3CCN(C)CC3)nc3ccccc23)n[nH]1 = 88
C=C1C(=O)O[C@H]2[C@H]1CC/C(Cn1cc(Cc3c[nH]c4ccccc34)nn1)=C\CC[C@@]1(C)O[C@@H]21 = 20
Oc1c(Cl)cc(Cl)cc1CNc1nccnn1 = 101
CCCCCCCCCCCCCCCCCCSC1=CC(=O)C(OC)=C(OC)C1=O = 113
O=[N+]([O-])c1cccc(-c2nc3sccn3c2-c2ccnc(NCCCNS(=O)(=O)c3ccc(F)cc3)n2)c1 = 10.6
C(=N\Nc1nnn(Cc2ccccc2)n1)/c1ccccc1 = 40
C/C(Cc1ccc(Cl)cc1)=C(\c1ccc(OCCN2CCCCCC2)cc1)c1ccc(OC(=O)C2CCCCC2)cc1 = 70.4
COc1cc(C(=O)/C=C/c2c(C)n([O-])c3ccc(C)cc3[n+]2=O)cc(OC)c1OC = 49.3

Request - read-out growth | tested on DU-145 prostate | molecule CCCCCCCCCCCCCC1=NCCN1CCO
116

Recorded growth for CCOC(=O)c1cnc2ccc(Br)cc2c1Nc1cccc(S(=O)(=O)NC)c1 with DU-145 prostate, please?
103

Report growth for CS(=O)(=O)c1ccc(-c2cnc3ccc(-c4cccc(S(C)(=O)=O)c4)nn23)cc1 tested on DU-145 prostate.
27.9

Request body: readout growth, system DU-145 prostate, query C[C@H](CCC(=O)O)[C@H]1CC[C@H]2[C@@H]3CC[C@@H]4/C(=C\c5ccco5)C(=O)/C(=C\c5ccco5)C[C@]4(C)[C@H]3CC[C@]12C . Return the value.
66.5
